System: HDQ-P1
run-description: normalised viability (% of control), CellTiter-Blue; higher = more viable cells (about 100 = DMSO control)
test-context: 10 nM; incubation time: 72 h
experimental-endpoint: normalised viability (%)

[[record]]
molecule = "CN(C)CCOc1ccc(/C(=C(/CCCl)c2ccccc2)c2ccccc2)cc1"
uom = "%"
recorded_value = 129

[[record]]
molecule = "COCC1(CO)C(=O)C2CCN1CC2 (stereo unspecified)"
uom = "%"
recorded_value = 91.2

[[record]]
molecule = "O=C(Nc1ccncc1)C(=O)c1cn(Cc2ccc(Cl)cc2)c2ccccc12"
uom = "%"
recorded_value = 95.8

[[record]]
molecule = "O=C(Nc1cccnc1)N1CCC(Cc2cccc(Oc3ccc(C(F)(F)F)cn3)c2)CC1"
uom = "%"
recorded_value = 116

[[record]]
molecule = "CC(C)C[C@@H](C(=O)N[C@H](C(=O)OC1CCCC1)c1ccccc1)[C@H](O)C(=O)NO"
uom = "%"
recorded_value = 113

[[record]]
molecule = "Cc1cc(Nc2cc(CN3CCOCC3)c3nc(C)c(Cc4ccc(Cl)cc4F)n3n2)n[nH]1"
uom = "%"
recorded_value = 92.8

